Provenance of the data: ChEMBL document CHEMBL3885881

- Species on record: Rattus norvegicus
- ASSAY_TEXT: DrugMatrix - Regimen: Daily Repeat
- Format: toxicity, organism-based, Sprague-Dawley
- Parameters: regimen Daily Repeat, gender Male, age 6-8 weeks
- RUN_PARAMETERS: in vivo, po, 0 mg/kg, 72 h, tissue Blood, route oral GAVAGE, dose level Control, time 3 day, vehicle 100 % WATER
PROPERTY_NAME: PLATELET COUNT (x10E3/uL)
Field format: number, assumed x10E3/uL, no unit text.

These recorded examples may help you get a feel for the data.
{"columns": ["COMPOUND", "PLATELET COUNT, x10E3/uL"],
 "data": [
  ["CCN(C(C)=O)c1cccc(-c2ccnc3c(C#N)cnn23)c1 [ZALEPLON]", 1246.17],
  ["CN(C)CCC=C1c2ccccc2CCc2ccccc21 [AMITRIPTYLINE]", 1246.17],
  ["NC(=O)c1cccnc1 [NIACINAMIDE]", 1026.17],
  ["NC12CC3CC(CC(C3)C1)C2 [AMANTADINE]", 1246.17]
]}

stdin: Look up PLATELET COUNT for this compound: CN(C)C(=O)Oc1cccc([N+](C)(C)C)c1.[Br-] [NEOSTIGMINE BROMIDE]
stdout: 858

stdin: Which PLATELET COUNT is reported for this compound? CCN(CC)CCOC(=O)C1(C2CCCCC2)CCCCC1 [DICYCLOMINE]
stdout: 911.5

* * *

- Species: Rattus norvegicus
- ASSAY_TEXT: DrugMatrix - Regimen: Daily Repeat
- Type: toxicity, organism-based, Sprague-Dawley
- Design: regimen Daily Repeat, gender Male, age 6-8 weeks
- RUN_PARAMETERS: in vivo, po, 0 mg/kg, 72 h, tissue Blood, route oral GAVAGE, dose level Control, time 3 day, vehicle 100 % WATER
Each entry below carries its recorded PLATELET COUNT.
Number only, in x10E3/uL; omit the unit.

Recorded results for 3 compounds are shown here.
{"columns": ["COMPOUND", "PROPERTY_NAME", "OBSERVED_RESULT"],
 "data": [
  ["O=c1[nH]c(=O)n(C2CCCO2)cc1F (centres undefined)", "PLATELET COUNT", 1312.17],
  ["CCCC(C)C1(CC)C(=O)NC(=O)NC1=O (centres undefined)", "PLATELET COUNT", 858],
  ["CCN(CC)CCNC(=O)c1ccc(N)cc1 [PROCAINAMIDE]", "PLATELET COUNT", 1114]
]}

For the next question, use this compound.
stdin: Query: PLATELET COUNT; subject: CNC1=Nc2ccc(Cl)cc2C(c2ccccc2)=[N+]([O-])C1 [CHLORDIAZEPOXIDE]
stdout: 1225.5

* * *

- Organism: Rattus norvegicus
- ASSAY_TEXT: DrugMatrix - Regimen: Daily Repeat
- Format: toxicity, organism-based, Sprague-Dawley
- Parameters: regimen Daily Repeat, gender Male, age 6-8 weeks
- RUN_PARAMETERS: in vivo, po, 0 mg/kg, 120 h, tissue Blood, route oral GAVAGE, dose level Control, time 5 day, vehicle .5 % CMC
// values below are reported NUCLEATED RED BLOOD CELLS

Please review the entries below; each comes with its answer.
{"columns": ["MOLECULE", "NUCLEATED RED BLOOD CELLS"],
 "data": [
  ["NC(=O)N1c2ccccc2CC(=O)c2ccccc21 [OXCARBAZEPINE]", "0.33 /100WBC"],
  ["CN(C)C(=O)C(CCN1CCC(O)(c2ccc(Cl)cc2)CC1)(c1ccccc1)c1ccccc1 [LOPERAMIDE]", "0 /100WBC"],
  ["C[C@]12CC[C@@H]3c4ccc(O)cc4CC[C@H]3[C@@H]1C[C@@H](O)[C@@H]2O", "0 /100WBC"],
  ["C[C@@](Cc1ccc(O)c(O)c1)(NN)C(=O)O.O", "0.17 /100WBC"],
  ["CCOc1nc2cccc(C(=O)O)c2n1Cc1ccc(-c2ccccc2-c2nnn[nH]2)cc1", "0 /100WBC"]
]}

stdin: Find the recorded NUCLEATED RED BLOOD CELLS belonging to `C[C@@H]1O[C@@H](O[C@H]2C[C@@H](O)[C@]3(CO)[C@H]4[C@H](O)C[C@]5(C)[C@@H](C6=CC(=O)OC6)CC[C@]5(O)[C@@H]4CC[C@]3(O)C2)[C@H](O)[C@H](O)[C@H]1O` and report it.
stdout: 0 /100WBC
